Tested on: RPMI-8226 leukemia
testProtocol: NCI-60 one-dose screen, 48 h
protocolConditions: 10 µM unless noted
This is part of a sample that, as a whole, favours compounds with a hit. Of some 83,000 tested, about 20% had one in any assay. The source made the active and inactive calls. Rule for the calls: active = growth percent below 10; inactive = the rest.
In this exercise, the only acceptable responses are active, inactive

>>> qualitativelabel("C/C(=N\\NC(=O)Cn1c(-c2ccc(S(C)(=O)=O)cc2)nc2ccccc21)c1ccc(Cl)cc1")
"inactive"
>>> qualitativelabel("N#CC(C#N)=NO")
"inactive"
>>> qualitativelabel("O=C(NO)c1ccc(Cn2c(=O)n(-c3ccccc3F)c(=O)c3ccccc32)cc1")
"inactive"

Q) Tell me the assay call for C/C(=C(/c1ccc(Cl)cc1)c1ccc(OCCN2CCCC2)cc1)c1ccccc1 please.
A) inactive

Q) For this molecule, state the assay outcome: N#Cc1c(-c2ccc(Cl)cc2)csc1NC(=O)Nc1cccc(C(F)(F)F)c1
A) active

Q) Fill in: this test's call for COc1c(C(NC(=O)c2ccccc2)c2sccc2C)cc(Cl)c2cccnc12 (stereo not drawn) is ___
A) inactive

Q) Outcome logged for CC12O[C@H](C[C@@H](OC(=O)CCC(=O)O)[C@H]1O)n1c3ccccc3c3c4c(c5c6ccccc6n2c5c31)C(=O)NC4=O in this assay:
A) inactive

Q) Please let me know the test result on file for COCCN1CCN(Cc2ccc(-c3n[nH]c4c3C(=O)c3c(NC(=O)NN5CCOCC5)cccc3-4)cc2)CC1 .
A) active

----------
For each record, write down the corresponding growth.
Test system: SF-539 CNS
testProtocol: NCI-60 one-dose screen, 48 h (100 = growth as untreated, 0 = no growth, -100 = all killed)
protocolConditions: 10 µM unless noted
Description: Cells are grown in 96 well plates and exposed to the test compound for 48 hours. Compounds are tested at a single concentration, which is 10^-5 M for most compounds. The reported endpoint is percent growth (GI% or GIPRCNT), where numbers from 0 - 100% represent growth inhibition, and numbers from -100% - 0 represent cell death. For example, a value of 40 represents 60% growth inhibition. A value of 0 means no net growth occurred over the course of the experiment. […]
This is part of a sample that, as a whole, favours compounds with a hit. Of some 83,000 tested, about 20% had one in any assay. Active and inactive are the calls of the source. The calls were made as follows: active = growth percent below 10; inactive = the rest.

// for each molecule in input: emit growth
1. CN1[C@@H]2CC[C@H]1/C(=C\c1ccccc1)C1=C2[C@@H](c2ccccc2)C(C#N)=C(N)O1
2. C[C@@H]1COCCN1c1cc(C2([S@](C)(=N)=O)CC2)nc(-c2ccnc3[nH]ccc23)n1
3. O=C1CC(c2ccc3c(c2)OCO3)c2ncn(-c3ccc(Cl)cc3)c2N1 (stereo not given)
4. C[C@@H](Oc1cc(C(=O)Nc2ccc(C(=O)N3CCN(C)CC3)cc2)nnc1N)c1c(Cl)ccc(F)c1Cl

A)
1. 97.8% (inactive)
2. 1.29% (active)
3. 1.25% (active)
4. 64.9% (inactive)

Look at each molecule and report its growth.
1. C=CCn1c(=O)c2cnc(Nc3ccc(N4CCN(C)CC4)cc3)nc2n1-c1cccc(C(C)(C)O)n1
2. CC(=O)OCCC/C(=C\c1ccc2ccccc2c1)[N+](=O)[O-]
3. CCc1cc2c(cc1N1CCC(N3CCOCC3)CC1)C(C)(C)c1[nH]c3cc(C#N)ccc3c1C2=O

A)
-26.3% (active)
-99% (active)
-71.8% (active)

Would you mind listing growth for each of the following molecules?
1. CN1CCN(c2nc(C3=C(c4c[nH]c5ccccc45)C(=O)NC3=O)c3ccccc3n2)CC1
2. O=C(Nc1cn[nH]c1-c1nc2ccc(CN3CCOCC3)cc2[nH]1)NC1CC1

A)
1: 92.2% (inactive); 2: -60.9% (active)

Batch lookup, growth per entry.
1. C/C(=N\NC(=O)Cn1c(-c2ccc(S(C)(=O)=O)cc2)nc2ccccc21)c1ccc(Cl)cc1
2. COc1ccc2c(c1)cn1c3ccc(O)cc3nc(N)c21
3. COc1cc(OC)c(C(=O)/C=C/c2cc3c(cc2OCc2ccccc2)OC(C)(C)CC3)cc1CC=C(C)C
4. CO[C@H]1C[C@@H]2CC[C@@H](C)[C@@](O)(O2)C(=O)C(=O)N2CCCC[C@H]2C(=O)O[C@H]([C@H](C)C[C@@H]2CC[C@@H](O)[C@H](OC)C2)CC(=O)[C@H](C)/C=C(\C)[C@@H](O)[C@@H](OC)C(=O)[C@H](C)C[C@H](C)\C=C/C=C/C=C/1C

A)
1. 106% (inactive)
2. -23.2% (active)
3. 79.4% (inactive)
4. 27.4% (inactive)

Could I get growth for every one of these entries?
1. COc1ccc(-n2c(=O)c3ccccc3n(Cc3ccc(C(=O)NO)cc3)c2=O)cc1
2. CC(C)(C)c1nc(-c2cccc(NS(=O)(=O)c3c(F)cccc3F)c2F)c(-c2ccnc(N)n2)s1
3. CNC(=O)c1ccccc1Nc1nc(Nc2ccc3c(c2OC)CCC[C@H](N2CCN(CCO)CC2)C3)ncc1Cl
4. c1cc(OCCN2CCCCC2)cc(-c2n[nH]c3ccc(-c4ncn[nH]4)cc23)c1
5. COc1cc(Nc2ncc(F)c(Nc3ccc4c(n3)NC(=O)C(C)(C)O4)n2)cc(OC)c1OC
6. O=C(NOCCO)c1ccc2cncn2c1Nc1ccc(I)cc1F
7. NC1(C(=O)N[C@@H](CCO)c2ccc(Cl)cc2)CCN(c2ncnc3[nH]ccc23)CC1

A)
1: -10.6% (active); 2: 114% (inactive); 3: -41.7% (active); 4: 49.4% (inactive); 5: -14.8% (active); 6: 66.2% (inactive); 7: -54.4% (active)

Here are 2 molecules. What values of growth were reported for them?
1. Cc1cn(-c2cc(NC(=O)c3ccc(C)c(Nc4nccc(-c5cnccn5)n4)c3)cc(C(F)(F)F)c2)cn1
2. Cc1ccc2oc(=O)cc(-c3cc(-c4cc5ccccc5oc4=O)nc(N)c3C#N)c2c1

A)
98.2% (inactive)
59.8% (inactive)

I need growth for every entry listed below, if you could help.
1. Cc1cc(C2(c3ccc(O)c(C)c3)OS(=O)(=O)c3ccccc32)ccc1O
2. Cc1cc(Oc2ccccc2)ccc1Nc1ncnc2ccc(-c3cnc(Cl)c(NS(C)(=O)=O)c3)cc12
3. CCCCCc1ccc(C)cc1OC(=O)CCl
4. COc1ccc2c(CCC(c3ccccc3)c3ccccc3)c3[n+](cc2c1OC)CCc1cc2c(cc1-3)OCO2

A)
1. 99% (inactive)
2. -15.3% (active)
3. 112% (inactive)
4. 13.6% (inactive)

Required: growth, one value per molecule below.
1. COc1cnc2c(c1)C(=O)c1c-2n(CCCNC2=NCCS2)c(=O)c2cc(Cl)ccc12
2. O=C1C=CC2(NN=C(c3ccccc3)N2c2ccc(Cl)cc2)c2cccc(O)c21 (stereo not given)
3. O=C1C=CC2(NN=C(c3ccccc3)N2c2ccccc2)c2cccc(O)c21 (stereo not given)
4. Clc1nc(Cl)c2ncn(C/C=C\Cn3cnc4c(Cl)nc(Cl)nc43)c2n1
5. CCn1c(-c2nonc2N)nc2c(C#CC(C)(C)O)ncc(OC[C@H]3CCCNC3)c21
6. C=C1CC[C@@H]2[C@](C)(COC(C)=O)[C@H](OC(C)=O)CC[C@@]2(C)[C@@H]1C/C=C1/C(=O)OC[C@H]1OC(C)=O
7. N#CC[C@H](C1CCCC1)n1cc(-c2ncnc3[nH]ccc23)cn1
8. CO/C=C/C(=O)c1cc2cnc3c(=N)cc(NC(=O)C(C)C)c([nH]1)c23

A)
["-84.4% (active)", "26.6% (inactive)", "25.4% (inactive)", "-52.9% (active)", "27.1% (inactive)", "8.54% (active)", "67.4% (inactive)", "-57% (active)"]

Q) Reported growth for O=C(Nc1cccc(Cl)c1)Nc1ncc(CCNc2ncnc3ccsc23)s1 : what is it?
A) 24% (inactive)

Values were extracted from PubChem BioAssay (NCI).
